test system: HCT-116; assay: Inhibition of HCT116 human colon cancer cell proliferation; type: functional
Quantity kind: GI50 (µM)

// solved cases for GI50 follow
COc1ccc(-c2c[nH]nc2-c2cc(Cl)c(O)cc2O)cc1OC ... 13
Oc1cc(O)c(-c2n[nH]cc2-c2ccc(-c3ccc(F)cc3)cc2)cc1Cl ... 11
N#CCCCOc1cccc(-c2cn[nH]c2-c2cc(Cl)c(O)cc2O)c1 ... 30
Cc1n[nH]c(-c2cc(Cl)c(O)cc2O)c1-c1ccc(OCCCC#N)cc1 ... 3.6
N#CCCCOc1ccccc1-c1cn[nH]c1-c1cc(Cl)c(O)cc1O ... 31

1. COC1=C2CC(C)C[C@H](OC)C(O)C(C)/C=C(\C)[C@H](OC(N)=O)[C@@H](OC)/C=C\C=C(/C)C(=O)NC(=CC1=O)C2=O (single isomer, unassigned)
2. Cc1n[nH]c(-c2cc(Cl)c(O)cc2O)c1-c1ccccc1
Which has the smaller recorded GI50, 1 or 2 ? Please indicate the selected item by its label. 1

I. N#CCCCOc1ccc(-c2cn[nH]c2-c2cc(Cl)c(O)cc2O)cc1
II. Oc1cc(O)c(-c2n[nH]cc2-c2ccc3c(c2)OCCO3)cc1Cl
Returns: the argument ( I or II ) having the larger GI50. Please indicate the selected item by its label. II
(II: 23 µM, I: 6.8 µM)

---

biological target: ATP-dependent molecular chaperone HSP82 (Saccharomyces cerevisiae S288c, UniProt P02829); test: Inhibition of yeast Hsp90 ATPase activity
Sequence (P02829 whole entry): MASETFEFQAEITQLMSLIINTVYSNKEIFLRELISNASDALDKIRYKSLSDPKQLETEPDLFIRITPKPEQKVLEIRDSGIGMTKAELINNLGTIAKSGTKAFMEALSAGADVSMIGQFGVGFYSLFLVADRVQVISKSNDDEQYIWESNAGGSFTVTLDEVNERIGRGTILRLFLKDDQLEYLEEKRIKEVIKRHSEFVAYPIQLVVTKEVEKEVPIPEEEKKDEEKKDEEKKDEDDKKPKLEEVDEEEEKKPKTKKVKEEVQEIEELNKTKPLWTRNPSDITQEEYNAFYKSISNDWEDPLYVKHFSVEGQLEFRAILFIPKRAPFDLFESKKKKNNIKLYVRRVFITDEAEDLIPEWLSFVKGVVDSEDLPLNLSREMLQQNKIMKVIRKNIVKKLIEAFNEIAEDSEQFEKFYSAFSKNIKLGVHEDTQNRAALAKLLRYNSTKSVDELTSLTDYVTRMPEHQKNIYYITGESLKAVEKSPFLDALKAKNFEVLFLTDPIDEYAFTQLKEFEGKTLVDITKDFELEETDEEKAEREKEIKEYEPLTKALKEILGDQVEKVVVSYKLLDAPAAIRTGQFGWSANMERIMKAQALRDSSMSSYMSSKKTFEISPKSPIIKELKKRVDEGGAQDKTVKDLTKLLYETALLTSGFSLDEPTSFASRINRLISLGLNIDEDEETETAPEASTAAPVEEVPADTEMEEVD
pIC50: −log10 of the molar value.
Quantity kind: pIC50

COc1ccc(-c2c[nH]nc2-c2cc(Cl)c(O)cc2O)cc1OC ... 5.62
CCC(C)c1cc(-c2n[nH]cc2-c2ccc3c(c2)OCO3)c(O)cc1O (stereo not given) ... 4.65
Cc1n[nH]c(-c2cc(Cl)c(O)cc2O)c1-c1ccccc1 ... 5.78
Oc1cc(O)c(-c2n[nH]cc2-c2ccc(-c3ccc(F)cc3)cc2)cc1Cl ... 5.81

1. N#CCCCOc1cccc(-c2cn[nH]c2-c2cc(Cl)c(O)cc2O)c1
2. Cc1[nH]nc(-c2cc(Cl)ccc2O)c1-c1ccc2c(c1)OCCO2
Which has the smaller recorded pIC50, 1 or 2 ? Please indicate the selected item by its label. 2

---

molecular target: ATP-dependent molecular chaperone HSP82 (Saccharomyces cerevisiae S288c, UniProt P02829); assay: Inhibition of yeast Hsp90 ATPase activity
Quantity kind: IC50 (µM)

1. N#CCCCOc1ccccc1-c1cn[nH]c1-c1cc(Cl)c(O)cc1O
2. Oc1cc(O)c(-c2n[nH]cc2-c2ccc3c(c2)OCCO3)cc1Cl
3. CCCc1cc(-c2[nH]nc(C)c2-c2ccc3c(c2)OCCO3)c(O)cc1O
Thanks in advance: please rank these 3 entries by IC50, highest to lowest. Answer by listing the labels in the requested order. 3, 1, 2
(3: 46.1 µM, 1: 12.8 µM, 2: 1.6 µM)

---

biological target: ATP-dependent molecular chaperone HSP82 (Saccharomyces cerevisiae S288c) (UniProt P02829); assay: Inhibition of yeast Hsp90 ATPase activity at 40 uM; type: functional
Sequence (P02829 whole entry, looked up): as the sequence (P02829 whole entry) above
Quantity kind: inhibition (%)

// solved cases for inhibition follow
Cc1n[nH]c(-c2ccc(O)cc2O)c1-c1ccc2c(c1)OCCO2 ... 26
COc1cc(O)c(-c2[nH]ncc2-c2ccc3c(c2)OCO3)cc1C(C)C ... 20
C=CCNC1=C2CC(C)C[C@H](OC)C(O)C(C)/C=C(\C)[C@H](OC(N)=O)[C@@H](OC)/C=C\C=C(/C)C(=O)NC(=CC1=O)C2=O (single isomer, unassigned) ... 80
COC1=C2CC(C)C[C@H](OC)C(O)C(C)/C=C(\C)[C@H](OC(N)=O)[C@@H](OC)/C=C\C=C(/C)C(=O)NC(=CC1=O)C2=O (single isomer, unassigned) ... 90
CCC(C)c1cc(-c2[nH]ncc2-c2ccc3c(c2)OCO3)c(O)cc1O (centres undefined) ... 64

I. CCc1cc(-c2[nH]nc(C)c2-c2ccc3c(c2)OCCO3)c(O)cc1O
II. Cc1n[nH]c(-c2ccc(O)cc2O)c1Oc1ccc(F)cc1
III. COc1ccc(-c2[nH]nc(C)c2-c2ccc3c(c2)OCCCO3)c(O)c1
IV. CCC(C)c1cc(-c2[nH]ncc2-c2ccccc2)c(O)cc1OC (centres undefined)
Sort low-to-high on inhibition, please. Answer by listing the labels in the requested order. II, IV, III, I
(II: 0%, IV: 10%, III: 25%, I: 79%)
